// data source = the supplement of paper PMC4862054

- System: MDA-MB-468
- Test Parameters: 72 h
Binarize EC50, CellTiter-Blue viability at 1 µM; below is met, at or above is not met.

Known results for compounds:
Smiles Input	Group Label
COc1cc2ncnc(Nc3ccc(F)c(Cl)c3)c2cc1OCCCN1CCOCC1	met
N#Cc1ccc(COC[C@H]2O[C@@H](n3c(NCc4ccc(Cl)c(Cl)c4)nc4c(N)ncnc43)[C@H](O)[C@@H]2O)cc1	not met
CC(C)C[C@@H](C(=O)N[C@H](C(=O)OC1CCCC1)c1ccccc1)[C@H](O)C(=O)NO	met
Cc1cc(Nc2cc(CN3CCOCC3)c3nc(C)c(Cc4ccc(Cl)cc4F)n3n2)n[nH]1	not met
CCc1c2c(nc3ccc(OC(=O)N4CCC(N5CCCCC5)CC4)cc13)-c1cc3c(c(=O)n1C2)COC(=O)[C@]3(O)CC	not met

# input Answer whether the compound O=C(Nc1ccncc1)C(=O)c1cn(Cc2ccc(Cl)cc2)c2ccccc12 has EC50, CellTiter-Blue viability strictly less than 1 µM
# output met

# input Answer whether the compound Nc1cc(C(F)(F)F)c(-c2cc(N3CCOCC3)nc(N3CCOCC3)n2)cn1 has EC50, CellTiter-Blue viability strictly less than 1 µM
# output not met

# input Answer whether the compound COCC[n+]1c2c(n(Cc3cnccn3)c1C)C(=O)c1ccccc1C2=O has EC50, CellTiter-Blue viability strictly less than 1 µM
# output met

---

- System: MDA-MB-453
- Assay Name: normalised viability (% of control), CellTiter-Blue; higher = more viable cells (about 100 = DMSO control)
- Test Parameters: 3 nM; incubation time: 72 h
Value Type: normalised viability (%)
Provide the reading as a plain figure in %.

# input Give me measured normalised viability, please, for this compound: N#Cc1ccc(COC[C@H]2O[C@@H](n3c(NCc4ccc(Cl)c(Cl)c4)nc4c(N)ncnc43)[C@H](O)[C@@H]2O)cc1
# output 124

# input Give me measured normalised viability, please, for this compound: Cc1cc(Nc2cc(CN3CCOCC3)c3nc(C)c(Cc4ccc(Cl)cc4F)n3n2)n[nH]1
# output 90.4

# input Give me measured normalised viability, please, for this compound: CN(C)CCOc1ccc(/C(=C(/CCCl)c2ccccc2)c2ccccc2)cc1 [Toremifene]
# output 126

# input Give me measured normalised viability, please, for this compound: O=C(Nc1cccnc1)N1CCC(Cc2cccc(Oc3ccc(C(F)(F)F)cn3)c2)CC1 [PF-3845]
# output 112

# input Give me measured normalised viability, please, for this compound: COCC1(CO)C(=O)C2CCN1CC2 (stereo unspecified) [Prima-1 Met]
# output 95.4

# input Give me measured normalised viability, please, for this compound: CNC(=O)c1cc(Oc2ccc(NC(=O)Nc3ccc(Cl)c(C(F)(F)F)c3)c(F)c2)ccn1 [Regorafenib]
# output 102

---

Item-by-item account of normalised response
- Test system: CAL-51
- Assay Name: normalised response (% of control), CellTiter-Glo; higher = more viable cells (100 = DMSO, 0 = benzethonium chloride kill control)
- Test Parameters: incubation time: 72 h
Provide the reading as a plain figure in %.

Use the examples below as a reference point.
Compound	Unit Label	normalised response
COc1cc(O)c2c(c1)/C=C/C[C@H](O)[C@H](O)C(=O)/C=C\C[C@H](C)OC2=O [(5Z)-7-Oxozeaenol] (1 nM)	%	93.9
N#Cc1ccc(COC[C@H]2O[C@@H](n3c(NCc4ccc(Cl)c(Cl)c4)nc4c(N)ncnc43)[C@H](O)[C@@H]2O)cc1 (1000 nM)	%	110
CN(C)CCOc1ccc(/C(=C(/CCCl)c2ccccc2)c2ccccc2)cc1 [Toremifene] (1000 nM)	%	108
CCc1c2c(nc3ccc(OC(=O)N4CCC(N5CCCCC5)CC4)cc13)-c1cc3c(c(=O)n1C2)COC(=O)[C@]3(O)CC [Irinotecan] (1 nM)	%	81.6
NC(=O)c1ccc(I)c([N+](=O)[O-])c1 [Iniparib] (1000 nM)	%	126

# input Consider the compound COCC[n+]1c2c(n(Cc3cnccn3)c1C)C(=O)c1ccccc1C2=O [YM155] (1 nM) tested on CAL-51; state its normalised response.
# output 119

# input Consider the compound COc1cc2/c(=N/c3ccc(Br)cc3F)nc[nH]c2cc1OCC1CCN(C)CC1 [Vandetanib] (1 nM) tested on CAL-51; state its normalised response.
# output 118

# input Consider the compound CCOC(=O)CCNc1cc(N2CCc3ccccc3CC2)nc(-c2ccccn2)n1 [GSK-J4] (100 nM) tested on CAL-51; state its normalised response.
# output 97.8

---

- Test system: BT-474
- Assay Name: normalised response (% of control), CellTox Green; higher = less cell death (100 = DMSO, 0 = benzethonium chloride kill control)
- Test Parameters: incubation time: 72 h
Item-by-item account of normalised response
Provide the reading as a plain figure in %.

Compound	Unit Label	normalised response
CC(C)C[C@@H](C(=O)N[C@H](C(=O)OC1CCCC1)c1ccccc1)[C@H](O)C(=O)NO [Tosedostat] (100 nM)	%	102
CC(C)C[C@@H](C(=O)N[C@H](C(=O)OC1CCCC1)c1ccccc1)[C@H](O)C(=O)NO [Tosedostat] (10000 nM)	%	66.9
CCOC(=O)CCNc1cc(N2CCc3ccccc3CC2)nc(-c2ccccn2)n1 [GSK-J4] (10000 nM)	%	-18.4
NC(=O)c1ccc(I)c([N+](=O)[O-])c1 [Iniparib] (10000 nM)	%	89.9
NC(=O)c1ccc(I)c([N+](=O)[O-])c1 [Iniparib] (100 nM)	%	95.7

# input Consider the compound CNC(=O)c1cccc(-c2ccc3c(N4CCOC[C@@H]4C)nc(N4CCOC[C@@H]4C)nc3n2)c1 [AZD2014] (1000 nM) tested on BT-474; state its normalised response.
# output 96.9

# input Consider the compound COc1cc(O)c2c(c1)/C=C/C[C@H](O)[C@H](O)C(=O)/C=C\C[C@H](C)OC2=O [(5Z)-7-Oxozeaenol] (100 nM) tested on BT-474; state its normalised response.
# output 104

# input Consider the compound c1ccc2c(CCNc3ccc(Nc4ccncc4)cc3)c[nH]c2c1 [Serdemetan] (10000 nM) tested on BT-474; state its normalised response.
# output 56.7

---

- Tested on: SK-BR-3
- Test Parameters: 72 h
Value Type: EC50, CellTiter-Blue viability (µM)
Provide the reading as a plain figure in µM.

Smiles Input	Unit Label	Observed
Nc1cc(C(F)(F)F)c(-c2cc(N3CCOCC3)nc(N3CCOCC3)n2)cn1	µM	0.257

# input Consider the compound Cc1cc(Nc2cc(CN3CCOCC3)c3nc(C)c(Cc4ccc(Cl)cc4F)n3n2)n[nH]1 tested on SK-BR-3; state its EC50, CellTiter-Blue viability.
# output 3.18

# input Consider the compound COc1cc2/c(=N/c3ccc(Br)cc3F)nc[nH]c2cc1OCC1CCN(C)CC1 tested on SK-BR-3; state its EC50, CellTiter-Blue viability.
# output 4.33

# input Consider the compound COc1cc(OC2CCN(C)CC2)ccc1Nc1ncc2c(n1)n(C1CCCC1)c(=O)n2C tested on SK-BR-3; state its EC50, CellTiter-Blue viability.
# output 1.05

# input Consider the compound COC(=O)c1ccc2c(c1)NC(=O)/C2=C(\Nc1ccc(N(C)C(=O)CN2CCN(C)CC2)cc1)c1ccccc1 tested on SK-BR-3; state its EC50, CellTiter-Blue viability.
# output 7.75

---

- Test system: Hs578T
- Assay Name: normalised response (% of control), CellTox Green; higher = less cell death (100 = DMSO, 0 = benzethonium chloride kill control)
- Test Parameters: incubation time: 72 h
Label Not satisfied if normalised response falls below 90%; label Satisfied in every other case.

Known results for compounds:
Compound	Group Label
CNC(=O)c1cc(Oc2ccc(NC(=O)Nc3ccc(Cl)c(C(F)(F)F)c3)c(F)c2)ccn1 [Regorafenib] (100 nM)	Satisfied
COc1cc2ncnc(Nc3ccc(F)c(Cl)c3)c2cc1OCCCN1CCOCC1 [Gefitinib] (100 nM)	Not satisfied
COc1cc(O)c2c(c1)/C=C/C[C@H](O)[C@H](O)C(=O)/C=C\C[C@H](C)OC2=O [(5Z)-7-Oxozeaenol] (1000 nM)	Not satisfied
CNC(=O)c1ccc(N2C(=S)N(c3ccc(C#N)c(C(F)(F)F)c3)C(=O)C23CCC3)cc1F [RD162] (10000 nM)	Satisfied
COC(=O)c1ccc2c(c1)NC(=O)/C2=C(\Nc1ccc(N(C)C(=O)CN2CCN(C)CC2)cc1)c1ccccc1 [Nintedanib] (1000 nM)	Satisfied
O=P1(N(CCCl)CCCl)NCCCO1 (configuration not stated) [Cyclophosphamide] (400 nM)	Not satisfied

# input Check this compound for normalised response at or above 90%: Oc1ccc2c(c1)CC[C@H](c1ccccc1)[C@@H]2c1ccc(OCCN2CCCC2)cc1 [Lasofoxifene] (1000 nM)
# output Not satisfied
